- System: L1210 Cells
- Assay Explanation: Inhibition of RNA synthesis in L1210 cells
- Type: cell-based
- Recorded Conditions: Mus musculus, L1210, read-out: Inhib of Synth, RNA, ED50
- Description: ^c Assay described in G. Tong, W. W. Lee, D. R. Black and D. W. Henry
Assign IC50 to each entry below.
Answers are plain numbers, in µM.

                              record_smiles  experimental_target  reading
0  COc1cccc2c1C(=O)c1c(O)c3c(c(O)c1C2=O)C[C@@](O)(C(C)=O)C[C@@H]3O[C@H]1C[C@H](NCc2ccccc2)[C@H](O)[C@H](C)O1          L1210 Cells     0.17

// below: IC50 requested for another compound
Identify the reported IC50 for the following entry. COc1cccc2c1C(=O)c1c(O)c3c(c(O)c1C2=O)C[C@@](O)(C(=O)CO)C[C@@H]3O[C@H]1C[C@H](N(Cc2ccccc2)Cc2ccccc2)[C@H](O)[C@H](C)O1 4.8

----------
Assign ΔTm to each entry below.
- System: isolated helical DNA
- Assay Explanation: ΔTm of isolated helical DNA (DNA-binding)
- Recorded Conditions: difference in DNA melting temperature with and without drug; ~1° weak binding if any, ≥5° significant binding
Numbers only, in °C.

The examples below pair each entry with its known result.
Molecule	Reading
COc1cccc2c1C(=O)c1c(O)c3c(c(O)c1C2=O)C[C@@](O)(C(C)=O)C[C@@H]3O[C@H]1C[C@H](N(Cc2ccccc2)Cc2ccccc2)[C@H](O)[C@H](C)O1 [Compound V, N,N-Dibenzyldaunomycin]	1.35
COc1cccc2c1C(=O)c1c(O)c3c(c(O)c1C2=O)C[C@@](O)(C(C)O)C[C@@H]3O[C@H]1C[C@H](NCc2ccccc2)[C@H](O)[C@H](C)O1 (some centres unmarked) [II, N-Benzyl-13-dihydrodaunomycin]	6.25

Quick batch: ΔTm for everything below.
1. COc1cccc2c1C(=O)c1c(O)c3c(c(O)c1C2=O)C[C@@](O)(C(=O)CO)C[C@@H]3O[C@H]1C[C@H](NCc2ccccc2)[C@H](O)[C@H](C)O1 [III, N-Benzyladriamycin]
2. COc1cccc2c1C(=O)c1c(O)c3c(c(O)c1C2=O)C[C@@](O)(C(O)CO)C[C@@H]3O[C@H]1C[C@H](NCc2ccccc2)[C@H](O)[C@H](C)O1 (some centres unmarked) [IV, N-Benzyl-13-dihydroadriamycin]
3. COc1cccc2c1C(=O)c1c(O)c3c(c(O)c1C2=O)C[C@@](O)(C(C)O)C[C@@H]3O[C@H]1C[C@H](N(Cc2ccccc2)Cc2ccccc2)[C@H](O)[C@H](C)O1 (some centres unmarked) [Compound VI, N,N-Dibenzyl-13-dihydrodaunomycin]

11.3
7.6
0.6

----------
- Tested on: isolated helical DNA
- Assay Explanation: ΔTm of isolated helical DNA (DNA-binding)
- Recorded Conditions: difference in DNA melting temperature with and without drug; ~1° weak binding if any, ≥5° significant binding
Assign ΔTm to each entry below.
Answers are plain numbers, in °C.

Molecule	Unit Symbol	ΔTm
COc1cccc2c1C(=O)c1c(O)c3c(c(O)c1C2=O)C[C@@](O)(C(=O)CO)C[C@@H]3O[C@H]1C[C@H](N)[C@H](O)[C@H](C)O1 [X, Adriamycin, reference compound]	°C	13.4
COc1cccc2c1C(=O)c1c(O)c3c(c(O)c1C2=O)C[C@@](O)(C(=O)CO)C[C@@H]3O[C@H]1C[C@H](N(Cc2ccccc2)Cc2ccccc2)[C@H](O)[C@H](C)O1	°C	-1.2

Fetch value of ΔTm on isolated helical DNA for COc1cccc2c1C(=O)c1c(O)c3c(c(O)c1C2=O)C[C@@](O)(C(C)=O)C[C@@H]3O[C@H]1C[C@H](NCc2ccccc2)[C@H](O)[C@H](C)O1 . 10.2

----------
Assign pIC50 to each entry below.
- Test system: L1210 Cells
- Assay Explanation: Inhibition of DNA synthesis in L1210 cells
- Format: cell-based
- Recorded Conditions: Mus musculus; L1210 cells, DNA synthesis; read-out: Inhib of Synth, DNA, ED50
- Source text: ^c Assay described in G. Tong, W. W. Lee, D. R. Black and D. W. Henry
One number for each entry, as −log10 of the molar value.

The examples below pair each entry with its known result.
Compound	Recorded Endpoint	Reading
COc1cccc2c1C(=O)c1c(O)c3c(c(O)c1C2=O)C[C@@](O)(C(=O)CO)C[C@@H]3O[C@H]1C[C@H](NCc2ccccc2)[C@H](O)[C@H](C)O1 [III, N-Benzyladriamycin]	pIC50	6.19
COc1cccc2c1C(=O)c1c(O)c3c(c(O)c1C2=O)C[C@@](O)(C(O)CO)C[C@@H]3O[C@H]1C[C@H](NCc2ccccc2)[C@H](O)[C@H](C)O1 (stereo partly drawn) [IV, N-Benzyl-13-dihydroadriamycin]	pIC50	5.85
COc1cccc2c1C(=O)c1c(O)c3c(c(O)c1C2=O)C[C@@](O)(C(=O)CO)C[C@@H]3O[C@H]1C[C@H](N)[C@H](O)[C@H](C)O1 [X, Adriamycin, reference compound]	pIC50	5.82
COc1cccc2c1C(=O)c1c(O)c3c(c(O)c1C2=O)C[C@@](O)(C(C)=O)C[C@@H]3O[C@H]1C[C@H](N)[C@H](O)[C@H](C)O1 [IX, Daunomycin, reference compound]	pIC50	6.00

// below: pIC50 requested for another compound
Identify the reported pIC50 for the following entry. COc1cccc2c1C(=O)c1c(O)c3c(c(O)c1C2=O)C[C@@](O)(C(C)O)C[C@@H]3O[C@H]1C[C@H](NCc2ccccc2)[C@H](O)[C@H](C)O1 (stereo partly drawn) [II, N-Benzyl-13-dihydrodaunomycin] 5.77

----------
- Tested on: L1210 Cells
- Assay Explanation: Inhibition of RNA synthesis in L1210 cells
- Format: cell-based
- Recorded Conditions: Mus musculus; L1210 cells, RNA synthesis; read-out: Inhib of Synth, RNA, ED50
Assign log10(IC50) to each entry below.
// units: nM (pre-log); metric: IC50; scale: log10

Compound	log10(IC50)
COc1cccc2c1C(=O)c1c(O)c3c(c(O)c1C2=O)C[C@@](O)(C(C)O)C[C@@H]3O[C@H]1C[C@H](N(Cc2ccccc2)Cc2ccccc2)[C@H](O)[C@H](C)O1 (stereo partly shown) [Compound VI, N,N-Dibenzyl-13-dihydrodaunomycin]	3.88
COc1cccc2c1C(=O)c1c(O)c3c(c(O)c1C2=O)C[C@@](O)(C(O)CO)C[C@@H]3O[C@H]1C[C@H](NCc2ccccc2)[C@H](O)[C@H](C)O1 (stereo partly shown) [IV, N-Benzyl-13-dihydroadriamycin]	2.46
COc1cccc2c1C(=O)c1c(O)c3c(c(O)c1C2=O)C[C@@](O)(C(=O)CO)C[C@@H]3O[C@H]1C[C@H](N)[C@H](O)[C@H](C)O1 [X, Adriamycin, reference compound]	2.83
COc1cccc2c1C(=O)c1c(O)c3c(c(O)c1C2=O)C[C@@](O)(C(C)=O)C[C@@H]3O[C@H]1C[C@H](N)[C@H](O)[C@H](C)O1 [IX, Daunomycin, reference compound]	2.48

Quick batch: log10(IC50) for everything below.
1. COc1cccc2c1C(=O)c1c(O)c3c(c(O)c1C2=O)C[C@@](O)(C(=O)CO)C[C@@H]3O[C@H]1C[C@H](NCc2ccccc2)[C@H](O)[C@H](C)O1
2. COc1cccc2c1C(=O)c1c(O)c3c(c(O)c1C2=O)C[C@@](O)(C(C)=O)C[C@@H]3O[C@H]1C[C@H](N(Cc2ccccc2)Cc2ccccc2)[C@H](O)[C@H](C)O1
3. COc1cccc2c1C(=O)c1c(O)c3c(c(O)c1C2=O)C[C@@](O)(C(C)O)C[C@@H]3O[C@H]1C[C@H](NCc2ccccc2)[C@H](O)[C@H](C)O1 (stereo partly shown) [II, N-Benzyl-13-dihydrodaunomycin]

[1.95, 4.00, 2.51]
